system: Pseud. aeruginosa EP-01; experiment: Antibacterial activities (MIC), Pseud. aeruginosa EP-01; type: cell-based; details: Pseudomonas aeruginosa, EP01
# maps each entry to its MIC
PROPERTY_LABEL: MIC (µg/mL)

INSERT INTO assay_data (structure_smiles_string, property_label, reading) VALUES
  ('NC(=O)c1cc[n+](CC2=C(C(=O)[O-])N3C(=O)[C@@H](NC(=O)[C@H](NC(=O)c4coc5cc(O)c(O)cc5c4=O)c4ccc(OCC(=O)O)cc4)[C@H]3SC2)cc1', 'MIC', 0.1),
  ('CC(=O)Oc1cc2oc(C)c(C(=O)N[C@@H](C(=O)N[C@@H]3C(=O)N4C(C(=O)[O-])=C(C[n+]5ccc(C(N)=O)cc5)CS[C@H]34)c3ccc(OCC(=O)O)cc3)c(=O)c2cc1OC(C)=O', 'MIC', 0.2),
  ('CO[C@@]1(NC(=O)[C@H](NC(=O)c2c(C)oc3c(O)c(O)ccc3c2=O)c2ccc(OCC(=O)O)cc2)C(=O)N2C(C(=O)O)=C(CSc3nnnn3CC(=O)O)CS[C@@H]21', 'MIC', 0.8),
  ('CO[C@@]1(NC(=O)[C@H](NC(=O)c2c(C)oc3cc(OC(C)=O)c(OC(C)=O)cc3c2=O)c2ccc(OCC(=O)O)cc2)C(=O)N2C(C(=O)O)=C(CSc3nnnn3CC(=O)O)CS[C@@H]21', 'MIC', 0.2),
  ('CO[C@@]1(NC(=O)[C@H](NC(=O)c2c(C)oc3cc(O)c(O)cc3c2=O)c2ccc(OCC(=O)O)cc2)C(=O)N2C(C(=O)[O-])=C(C[n+]3ccccc3)CS[C@@H]21', 'MIC', 0.2),
  ('CC(=O)Oc1cc2oc(C)c(C(=O)N[C@@H](C(=O)N[C@@H]3C(=O)N4C(C(=O)O)=C(CSc5nnnn5CC(=O)O)CS[C@H]34)c3ccc(OCC(=O)O)cc3)c(=O)c2cc1OC(C)=O', 'MIC', 0.2),
  ('Cc1oc2cc(O)c(O)cc2c(=O)c1C(=O)N[C@@H](C(=O)N[C@@H]1C(=O)N2C(C(=O)[O-])=C(C[n+]3ccc(CCS(=O)(=O)O)cc3)CS[C@H]12)c1ccc(OCC(=O)O)cc1', 'MIC', 0.2),
  ('O=C(O)COc1ccc([C@@H](NC(=O)c2coc3cc(O)c(O)cc3c2=O)C(=O)N[C@@H]2C(=O)N3C(C(=O)[O-])=C(C[n+]4ccccc4)CS[C@H]23)cc1', 'MIC', 0.1),
  ('Cc1oc2cc(O)c(O)cc2c(=O)c1C(=O)N[C@@H](C(=O)N[C@@H]1C(=O)N2C(C(=O)[O-])=C(C[n+]3ccc(C(N)=O)cc3)CS[C@H]12)c1ccc(OCC(=O)O)cc1', 'MIC', 0.2),
  ('CCOC(=O)Oc1cc2oc(C)c(C(=O)N[C@@H](C(=O)N[C@@H]3C(=O)N4C(C(=O)O)=C(COC(C)=O)CS[C@H]34)c3ccc(OCC(=O)O)cc3)c(=O)c2cc1OC(=O)OCC', 'MIC', 0.1);

* * *

test system: Escher. coli NIHJ
PROPERTY_LABEL: MIC (µg/mL)

INSERT INTO results (structure_smiles_string, study_system, reading) VALUES
  ('CC(=O)Oc1ccc2c(=O)c(C(=O)N[C@@H](C(=O)N[C@@H]3C(=O)N4C(C(=O)O)=C(CSc5nnnn5CC(=O)O)CS[C@H]34)c3ccc(OCC(=O)O)cc3)c(C)oc2c1OC(C)=O', 'Escher. coli NIHJ', 0.4),
  ('Cc1nnc(SCC2=C(C(=O)O)N3C(=O)[C@@H](NC(=O)[C@H](NC(=O)c4coc5cc(O)c(O)cc5c4=O)c4ccc(OCC(=O)O)cc4)[C@H]3SC2)s1', 'Escher. coli NIHJ', 0.8),
  ('NC(=O)c1cc[n+](CC2=C(C(=O)[O-])N3C(=O)[C@@H](NC(=O)[C@H](NC(=O)c4coc5cc(O)c(O)cc5c4=O)c4ccc(OCC(=O)O)cc4)[C@H]3SC2)cc1', 'Escher. coli NIHJ', 0.8),
  ('CCn1cc(C(=O)N[C@@H](C(=O)N[C@@H]2C(=O)N3C(C(=O)O)=C(COC(C)=O)CS[C@H]23)c2ccc(OCC(=O)O)cc2)c(=O)c2cc(O)c(O)cc21', 'Escher. coli NIHJ', 0.8);

* * *

Quick record of MIC values for Staph. aureus 209-P.
PROPERTY_LABEL: MIC (µg/mL)

INSERT INTO results (structure_smiles_string, reading) VALUES
  ('Cc1oc2cc(O)c(O)cc2c(=O)c1C(=O)N[C@@H](C(=O)N[C@@H]1C(=O)N2C(C(=O)[O-])=C(C[n+]3ccccc3)CS[C@H]12)c1ccc(OCC(=O)O)cc1', 100),
  ('Cc1oc2cc(O)c(O)cc2c(=O)c1C(=O)N[C@@H](C(=O)N[C@@H]1C(=O)N2C(C(=O)[O-])=C(C[n+]3ccc(C(=O)O)cc3)CS[C@H]12)c1ccc(OCC(=O)O)cc1', 100),
  ('CCn1cc(C(=O)N[C@@H](C(=O)N[C@@H]2C(=O)N3C(C(=O)O)=C(COC(C)=O)CS[C@H]23)c2ccc(OCC(=O)O)cc2)c(=O)c2cc(O)c(O)cc21', 50),
  ('CC(=O)Oc1cc2oc(C)c(C(=O)N[C@@H](C(=O)N[C@@H]3C(=O)N4C(C(=O)[O-])=C(C[n+]5ccc(C(N)=O)cc5)CS[C@H]34)c3ccc(OCC(=O)O)cc3)c(=O)c2cc1OC(C)=O', 25),
  ('Cc1oc2cc(O)c(O)cc2c(=O)c1C(=O)N[C@@H](C(=O)N[C@@H]1C(=O)N2C(C(=O)O)=C(CSc3nnnn3CC(=O)O)CS[C@H]12)c1ccc(OCC(=O)O)cc1', 100),
  ('Cc1nnc(SCC2=C(C(=O)O)N3C(=O)[C@@H](NC(=O)[C@H](NC(=O)c4coc5cc(O)c(O)cc5c4=O)c4ccc(OCC(=O)O)cc4)[C@H]3SC2)s1', 3.13),
  ('CCn1cc(C(=O)N[C@@H](C(=O)N[C@@H]2C(=O)N3C(C(=O)O)=C(CSc4nnnn4C)CS[C@H]23)c2ccc(OCC(=O)O)cc2)c(=O)c2cc(O)c(O)cc21', 50),
  ('CO[C@@]1(NC(=O)[C@H](NC(=O)c2c(C)oc3cc(O)c(O)cc3c2=O)c2ccc(OCC(=O)O)cc2)C(=O)N2C(C(=O)O)=C(COC(C)=O)CS[C@@H]21', 50),
  ('CO[C@@]1(NC(=O)[C@H](NC(=O)c2coc3cc(O)c(O)cc3c2=O)c2ccc(OCC(=O)O)cc2)C(=O)N2C(C(=O)O)=C(COC(C)=O)CS[C@@H]21', 50),
  ('CO[C@@]1(NC(=O)[C@H](NC(=O)c2coc3cc(O)c(O)cc3c2=O)c2ccc(OCC(=O)O)cc2)C(=O)N2C(C(=O)O)=C(CSc3nnnn3CC(=O)O)CS[C@@H]21', 100);

* * *

Quick record of MIC values for Staph. aureus 209-P.
PROPERTY_LABEL: MIC (µg/mL)

INSERT INTO assay_data (molecule, property_label, reading) VALUES
  ('CC(=O)Oc1cc2oc(C)c(C(=O)N[C@@H](C(=O)N[C@@H]3C(=O)N4C(C(=O)O)=C(CSc5nnnn5CC(=O)O)CS[C@H]34)c3ccc(OCC(=O)O)cc3)c(=O)c2cc1OC(C)=O [Example 22]', 'MIC', 100),
  ('Cc1oc2cc(O)c(O)cc2c(=O)c1C(=O)N[C@@H](C(=O)N[C@@H]1C(=O)N2C(C(=O)[O-])=C(C[n+]3cccc(CC(=O)O)c3)CS[C@H]12)c1ccc(OCC(=O)O)cc1 [Example 43]', 'MIC', 100),
  ('CO[C@@]1(NC(=O)[C@H](NC(=O)c2c(C)oc3cc(OC(C)=O)c(OC(C)=O)cc3c2=O)c2ccc(OCC(=O)O)cc2)C(=O)N2C(C(=O)O)=C(CSc3nnnn3CC(=O)O)CS[C@@H]21 [Example 21]', 'MIC', 100),
  ('O=C(O)COc1ccc([C@@H](NC(=O)c2coc3c(O)c(O)ccc3c2=O)C(=O)N[C@@H]2C(=O)N3C(C(=O)O)=C(CSc4nnnn4CC(=O)O)CS[C@H]23)cc1 [Example 20]', 'MIC', 100),
  ('O=C(O)COc1ccc([C@@H](NC(=O)c2coc3cc(O)c(O)cc3c2=O)C(=O)N[C@@H]2C(=O)N3C(C(=O)[O-])=C(C[n+]4ccc(CCS(=O)(=O)O)cc4)CS[C@H]23)cc1 [Example 46]', 'MIC', 50),
  ('CC(=O)OCC1=C(C(=O)O)N2C(=O)[C@@H](NC(=O)[C@H](NC(=O)c3coc4c(OC(C)=O)c(OC(C)=O)ccc4c3=O)c3ccc(OCC(=O)O)cc3)[C@H]2SC1 [Example 17]', 'MIC', 50),
  ('CO[C@@]1(NC(=O)[C@H](NC(=O)c2c(C)oc3cc(O)c(O)cc3c2=O)c2ccc(OCC(=O)O)cc2)C(=O)N2C(C(=O)[O-])=C(C[n+]3ccc(C(N)=O)cc3)CS[C@@H]21 [Example 50]', 'MIC', 100),
  ('CC(=O)OCC1=C(C(=O)O)N2C(=O)[C@@H](NC(=O)[C@H](NC(=O)c3coc4cc(O)c(O)cc4c3=O)c3ccc(OCC(=O)O)cc3)[C@H]2SC1 [Example 1]', 'MIC', 25),
  ('Cn1nnnc1SCC1=C(C(=O)O)N2C(=O)[C@@H](NC(=O)[C@H](NC(=O)c3cc4ccc(O)c(O)c4oc3=O)c3ccc(OCC(=O)O)cc3)[C@H]2SC1 [Example 10]', 'MIC', 12.5),
  ('CCn1cc(C(=O)N[C@@H](C(=O)N[C@@H]2C(=O)N3C(C(=O)[O-])=C(C[n+]4ccc(C(N)=O)cc4)CS[C@H]23)c2ccc(OCC(=O)O)cc2)c(=O)c2cc(O)c(O)cc21 [Example 53]', 'MIC', 50);
